assay: Cytotoxicity determination in HepG2.2.15 cells (CCK-8 cell viability); type: cell-based; conditions: human, 6 days treatment, CCK-8 assay, highest concentration 100 uM
QUANTITY: CC50 at 6 days (µM)
Supply the numeric figure in µM, leaving out any unit text.

Observe how each entry below is paired with its result.
[[record]]
compound = "[2H]C([2H])([2H])N1C[C@@H]2[C@H](N1CCC(C)(C)C(=O)O)C(F)(F)CN2CC1=C(C(=O)OCC)[C@H](c2cccc(F)c2C)N=C(c2nccs2)N1 (single isomer, unassigned) [Compound 100]"
quantity = "CC50 at 6 days"
observed_result = 12

[[record]]
compound = "CCOC(=O)C1=C(CN2C[C@@H](F)[C@@]3(F)CN(CC(C)(C)C(=O)O)C(=O)[C@@H]23)NC(c2nccs2)=N[C@H]1c1cccc(F)c1C (single isomer, unassigned) [Compound 203A]"
quantity = "CC50 at 6 days"
observed_result = 44.6


Lab note: next compound to report on.
-- ask State its CC50 at 6 days: CCOC(=O)C1=C(CN2C[C@H](F)[C@@]3(F)C(=O)N(CC(C)(C)C(=O)O)C[C@@H]23)NC(c2nccs2)=N[C@H]1c1cccc(F)c1C (single isomer, unassigned) [Compound 204C]
-- reply 36.9

----------
tested on: HBV; experiment: Anti-HBV activity in HepG2.2.15 cells (HBV DNA in culture medium by qPCR); assay type: cell-based; details: Hepatitis B virus, HepG2.2.15, 144 h, HepG2.2.15 cells, 6 days treatment, HBV DNA in culture medium quantified by real-time PCR; read-out: EC50
QUANTITY: pEC50
Please express pEC50 as -log10 of the molar concentration.

-- ask State its pEC50: CCOC(=O)C1=C(CN2CC(F)(F)[C@@H]3[C@H]2CN(C)N3CC2CC(C)(C(=O)O)C2)NC(c2nccs2)=N[C@H]1c1cccc(F)c1C (single isomer, unassigned) [Compound 98]
-- reply 7.85

-- ask State its pEC50: CCOC(=O)C1=C(CN2CC(F)(F)[C@@H]3[C@H]2CN(C)N3CCC(C)(C)C(=O)O)NC(c2nccs2)=N[C@@H]1c1ccc(F)c(F)c1C (single isomer, unassigned) [Compound 93]
-- reply 7.92

-- ask State its pEC50: CCOC(=O)C1=C(CN2CC(F)(F)[C@H]3[C@@H]2CCN3CCC(C)(C)C(=O)O)NC(c2nccs2)=N[C@@H]1c1ccc(F)nc1C (relative stereo) [Compound 121]
-- reply 8.06

----------
test: Cytotoxicity determination in HepG2.2.15 cells (CCK-8 cell viability); assay type: cell-based; conditions: human, 6 days treatment, CCK-8 assay, highest concentration 100 uM
QUANTITY: CC50 at 6 days (µM)
Supply the numeric figure in µM, leaving out any unit text.

[[record]]
compound = "CCOC(=O)C1=C(CN2CC(F)(F)[C@@H]3[C@H]2CON3CCC(C)(C)C(=O)O)NC(c2nccs2)=NC1c1cccc(F)c1Cl (single isomer, unassigned)"
quantity = "CC50 at 6 days"
observed_result = 32.3


Lab note: next compound to report on.
-- ask State its CC50 at 6 days: CCOC(=O)C1=C(CN2CC(F)(F)[C@H]3[C@@H]2CN(C(C)=O)N3CCC(C)(C)C(=O)O)NC(c2nccs2)=N[C@H]1c1ccc(F)c(F)c1Cl (single isomer, unassigned) [Compound 77B]
-- reply 17.5

----------
pEC50 for assorted compounds
test system: HBV; test: Anti-HBV activity in HepG2.2.15 cells (HBV DNA in culture medium by qPCR); assay type: cell-based; details: Hepatitis B virus, HepG2.2.15, 144 h, HepG2.2.15 cells, 6 days treatment, HBV DNA in culture medium quantified by real-time PCR; read-out: EC50
Please express pEC50 as -log10 of the molar concentration.

[[record]]
compound = "CCOC(=O)C1=C(CN2CC(F)(F)[C@@H]3C(=O)N([C@H]4CC[C@@H](C(=O)O)CC4)C[C@@H]32)NC(c2nccs2)=N[C@H]1c1cccc(F)c1C (single isomer, unassigned) [Compound 44A]"
tgt = "HBV"
quantity = "pEC50"
observed_result = 7.25

[[record]]
compound = "CCOC(=O)C1=C(CN2CC(F)(F)[C@@H]3CN(CC4(C(=O)O)CC4)C[C@@H]32)NC(c2nccs2)=N[C@H]1c1cccc(F)c1C (single isomer, unassigned) [Compound 16B]"
tgt = "HBV"
quantity = "pEC50"
observed_result = 7.16

[[record]]
compound = "CCOC(=O)C1=C(CN2CC(F)(F)[C@@H]3CN(S(=O)(=O)[C@H]4C[C@](C)(C(=O)O)C4)C[C@@H]32)NC(c2nccs2)=N[C@H]1c1cccc(F)c1C (single isomer, unassigned) [Compound 205A]"
tgt = "HBV"
quantity = "pEC50"
observed_result = 6.94

[[record]]
compound = "CCOC(=O)C1=C(CN2CC(F)(F)C3C2CN(C(C)=O)N3CCC(CC)C(=O)O)NC(c2nccs2)=N[C@H]1c1cccc(F)c1C (some centres unmarked) [Compound 78]"
tgt = "HBV"
quantity = "pEC50"
observed_result = 7.31


Lab note: next compound to report on.
-- ask State its pEC50: CCOC(=O)C1=C(CN2CC(F)(F)[C@@H]3[C@H]2CN(C)N3CCC(C)(C)C(=O)O)NC(c2nccs2)=N[C@@H]1c1ccc(F)nc1C (single isomer, unassigned) [Compound 96]
-- reply 7.30

----------
assay: Cytotoxicity determination in HepG2.2.15 cells (CCK-8 cell viability); type: cell-based; settings: human, 6 days treatment, CCK-8 assay, highest concentration 100 uM
CC50 at 6 days for assorted compounds
Supply the numeric figure in µM, leaving out any unit text.

-- ask State its CC50 at 6 days: COC(=O)C1=C(CN2CC(F)(F)[C@@H]3[C@H]2CON3CCC(C)(C)C(=O)O)NC(c2nccs2)=N[C@H]1c1cccc(F)c1C (single isomer, unassigned) [Compound 160]
-- reply 100

-- ask State its CC50 at 6 days: CCOC(=O)C1=C(CN2CC(F)(F)[C@H]3[C@@H]2CCN3CC[C@H]2C[C@H](C(=O)O)C2)NC(c2nccs2)=N[C@H]1c1cccc(F)c1C (single isomer, unassigned) [Compound 129B]
-- reply 12.4

-- ask State its CC50 at 6 days: CCOC(=O)C1=C(CN2CC(F)(F)[C@H]3[C@@H]2CCN3CC(=O)NS(C)(=O)=O)NC(c2nccs2)=N[C@H]1c1cccc(F)c1C (single isomer, unassigned) [Compound 8A]
-- reply 36.3

----------
EC50 for assorted compounds
system: HBV; assay: Anti-HBV activity in HepG2.2.15 cells (HBV DNA in culture medium by qPCR); type: cell-based; settings: Hepatitis B virus, HepG2.2.15, 144 h, HepG2.2.15 cells, 6 days treatment, HBV DNA in culture medium quantified by real-time PCR; read-out: EC50

Observe how each entry below is paired with its result.
[[record]]
compound = "CCOC(=O)C1=C(CN2CC(F)(F)[C@@H]3[C@H]2CON3CCC(C)(C)C(=O)O)NC(c2nccs2)=N[C@H]1c1cccc(F)c1C (relative stereo) [Compound 69A]"
tgt = "HBV"
observed_result = "0.7 nM"

[[record]]
compound = "CCOC(=O)C1=C(CN2CC(F)(F)C3CN(CC(C)C(=O)O)CC32)NC(c2nccs2)=N[C@H]1c1cccc(F)c1C (stereo in doubt)"
tgt = "HBV"
observed_result = "60.3 nM"

[[record]]
compound = "CCOC(=O)C1=C(CN2CC(F)(F)[C@@H]3[C@H]2CN(C(=O)C(C)C)N3CCC(C)(C)C(=O)O)NC(c2nccs2)=N[C@H]1c1cccc(F)c1C (single isomer, unassigned)"
tgt = "HBV"
observed_result = "38 nM"

[[record]]
compound = "CCOC(=O)C1=C(CN2CC(F)(F)C3[C@@H]2CCN3C2CC(C)(C(=O)O)C2)NC(c2nccs2)=N[C@H]1c1cccc(F)c1C (single isomer, unassigned)"
tgt = "HBV"
observed_result = "5.3 nM"

[[record]]
compound = "CCOC(=O)C1=C(CN2CC(F)(F)[C@H]3[C@@H]2CCN3C(C)=O)NC(c2nccs2)=N[C@H]1c1cccc(F)c1C (single isomer, unassigned)"
tgt = "HBV"
observed_result = "37.3 nM"


-- ask State its EC50: CCOC(=O)C1=C(CN2CC(F)(F)[C@@H]3C(=O)N([C@@H](C)C(=O)O)C[C@@H]32)NC(c2nccs2)=N[C@H]1c1cccc(F)c1C (single isomer, unassigned)
-- reply 92.6 nM

----------
system: HBV; test: Anti-HBV activity in HepG2.2.15 cells (HBV DNA in culture medium by qPCR); type: cell-based; details: Hepatitis B virus, HepG2.2.15, 144 h, HepG2.2.15 cells, 6 days treatment, HBV DNA in culture medium quantified by real-time PCR; read-out: EC50
QUANTITY: pEC50
Please express pEC50 as -log10 of the molar concentration.

Observe how each entry below is paired with its result.
[[record]]
compound = "CCOC(=O)C1=C(CN2CC(F)(F)[C@H]3[C@@H]2CCN3C[C@H]2C[C@@](C)(C(=O)O)C2)NC(c2nccs2)=N[C@H]1c1cccc(F)c1C (single isomer, unassigned) [Compound 116A]"
quantity = "pEC50"
observed_result = 9.10

[[record]]
compound = "CCOC(=O)C1=C(CN2CC(F)(F)[C@@H]3[C@H]2CON3C[C@H](CC)C(=O)O)NC(c2nccs2)=N[C@H]1c1cccc(F)c1C (single isomer, unassigned) [Compound 178B]"
quantity = "pEC50"
observed_result = 7.92


Lab note: next compound to report on.
-- ask State its pEC50: [H][C@]1(N2CC[C@H]3[C@@H]2C(F)(F)CN3CC2=C(C(=O)OC)[C@H](c3cccc(F)c3F)N=C(c3nccs3)N2)C[C@@]2(C[C@@H](C(=O)O)C2)C1 (single isomer, unassigned) [Compound 120A]
-- reply 7.92
